test-method-notes: Pharmacokinetic analysis of rabbit plasma after topical dosing, Example 5
Type: in vivo
study-conditions: rabbit, plasma, topical or ocular, 1.25 mg/kg; topical 1.25 mpk, day 11; read-out: Systemic AUC
Can you tell me AUC for the items I'm about to list?
Give bare numbers, in µM·h.

query-smiles	AUC, µM·h
C[C@](O)(COc1ccc(C#N)c(F)c1)C(=O)Nc1ccc(C#N)c(C(F)(F)F)c1	6.92

Please indicate AUC recorded for "C[C@](O)(COc1ccc(C#N)cc1)C(=O)Nc1ccc(C#N)c(C(F)(F)F)c1"
3.99

---

test-method-notes: Plasma concentration of Compound 2 after topical or subcutaneous dosing, Example 3
Type: in vivo, rabbit
study-conditions: rabbit, plasma; topical 2.5 mg/kg, one hour after last dose, LCMS
quantity-kind: concentration at 1 h (nM)
Answers are plain numbers, in nM.

Please indicate concentration at 1 h recorded for "C[C@](O)(COc1ccc(C#N)c(F)c1)C(=O)Nc1ccc(C#N)c(C(F)(F)F)c1"
1180

---

test-method-notes: Pharmacokinetic analysis of rabbit plasma after topical dosing, Example 5
Format: in vivo
study-conditions: rabbit, plasma, topical or ocular, 0.625 mg/kg; topical 0.625 mpk, day 11; read-out: Systemic AUC
quantity-kind: AUC

compound	AUC
C[C@](O)(COc1ccc(C#N)cc1)C(=O)Nc1ccc(C#N)c(C(F)(F)F)c1 [Compound 1]	2.87 µM·h

Please look at the following compound next.
Please indicate AUC recorded for C[C@](O)(COc1ccc(C#N)c(F)c1)C(=O)Nc1ccc(C#N)c(C(F)(F)F)c1 [Compound 2]
3.2 µM·h

---

test-method-notes: Pharmacokinetic analysis of rabbit plasma after topical dosing, Example 4
Assay type: in vivo
study-conditions: topical or ocular, 2.5 mg/kg, topical 2.5 mg/kg, day 11 of dosing, read-out: Mean plasma concentrations over time (AUC)
Can you tell me AUC for the items I'm about to list?
Give bare numbers, in µM·h.

query-smiles	measured-number
C[C@](O)(COc1ccc(C#N)cc1)C(=O)Nc1ccc(C#N)c(C(F)(F)F)c1	25.2

Please look at the following molecule next.
Please indicate AUC recorded for "C[C@](O)(COc1ccc(C#N)c(F)c1)C(=O)Nc1ccc(C#N)c(C(F)(F)F)c1"
12.2

# credit: patent US8791158B2
